The reader will find reported pEC50 values listed item by item below.
- Tested on: zfTac3rb
- Protocol Notes: Receptor transactivation assay, CRE-Luc reporter (PKA activation), COS-7 cells expressing zfTac3rb
- Format: cell-based, zebrafish
- Condition Info: Table 6 (native peptides and analogues); PKA activation; mean ± SEM; read-out: EC50 using CRE-Luc, zfTac3rb
*1 amine or outer side, *2 acyl side, *3 side chain or, on linkers, in order; H or OH if unused. Where a SMILES comes first, the peptide text is derived from it. [ ]: non-standard residue; d: D form. NMeF = CN[C@@H](Cc1ccccc1)C(=O)O; Suc = O=C(CCC(=O)[*:2])[*:1]; NMeV = CN[C@H](C(=O)O)C(C)C
Remember the convention: pEC50 equals -log10 of concentration in molar.

Some entries whose results are on file:
| Compound | Measured Target | Readout Number |
| --- | --- | --- |
| CSCC[C@H](NC(=O)[C@H](CC(C)C)NC(=O)CNC(=O)[C@H](C(C)C)N(C)C(=O)[C@H](Cc1ccccc1)NC(=O)[C@H](CO)NC(=O)[C@H](CC(=O)O)NC(=O)CCC(=O)O)C(N)=O [zfNKF-analog] | zfTac3rb | 8.11 |
| CSCC[C@H](NC(=O)[C@H](CC(C)C)NC(=O)CNC(=O)[C@@H](NC(=O)[C@H](Cc1ccccc1)NC(=O)[C@H](Cc1ccccc1)NC(=O)[C@H](CC(=O)O)NC(=O)[C@H](Cc1c[nH]cn1)NC(=O)[C@H](CCSC)NC(=O)[C@@H](N)CC(=O)O)C(C)C)C(N)=O [huNKB, reference compound] | zfTac3rb | 8.09 |
| CC[C@H](C)[C@H](NC(=O)[C@H](CC(=O)O)NC(=O)[C@H](Cc1c[nH]cn1)NC(=O)[C@H](CCSC)NC(=O)[C@@H](N)CCC(=O)O)C(=O)N[C@@H](Cc1ccccc1)C(=O)N[C@H](C(=O)NCC(=O)N[C@@H](CC(C)C)C(=O)N[C@@H](CCSC)C(N)=O)C(C)C [zfNKBa] (H-EMHDIFVGLM-NH2) | zfTac3rb | 7.78 |
| CSCC[C@H](NC(=O)[C@H](CC(C)C)NC(=O)CNC(=O)[C@H](C(C)C)N(C)C(=O)[C@H](Cc1ccccc1)NC(=O)[C@H](CC(=O)O)NC(=O)CCC(=O)O)C(N)=O [zfNKBb-analog, Succ-Asp-Phe-N(Me)Val-Gly-Leu-Met-NH2] (Suc-DF[NMeV]GLM-NH2) | zfTac3rb | 8.66 |
| CC[C@H](C)[C@H](NC(=O)[C@H](CC(=O)O)NC(=O)[C@H](CC(N)=O)NC(=O)[C@@H](N)Cc1ccc(O)cc1)C(=O)N[C@@H](CC(=O)O)C(=O)N[C@@H](Cc1ccc(O)cc1)C(=O)N[C@@H](CC(=O)O)C(=O)N[C@@H](CO)C(=O)N[C@@H](Cc1ccccc1)C(=O)N[C@H](C(=O)NCC(=O)N[C@@H](CC(C)C)C(=O)N[C@@H](CCSC)C(N)=O)C(C)C [zfNKF] (H-YNDIDYDSFVGLM-NH2) | zfTac3rb | 8.74 |
| CSCC[C@H](NC(=O)[C@H](CC(C)C)NC(=O)CNC(=O)[C@H](Cc1ccccc1)N(C)C(=O)[C@H](Cc1ccccc1)NC(=O)[C@H](CC(=O)O)NC(=O)CCC(=O)O)C(N)=O [Senktide, Succ-Asp-Phe-N(Me)Phe-Gly-Leu-Met-NH2, reference compound] (Suc-DF[NMeF]GLM-NH2) | zfTac3rb | 7.70 |

Task: Give a short answer stating reported pEC50 for CC[C@H](C)[C@H](NC(=O)[C@H](CC(=O)O)NC(=O)CCC(=O)O)C(=O)N[C@@H](Cc1ccccc1)C(=O)N(C)[C@H](C(=O)NCC(=O)N[C@@H](CC(C)C)C(=O)N[C@@H](CCSC)C(N)=O)C(C)C [zfNKBa-analog] (Suc-DIF[NMeV]GLM-NH2) .
Result: 7.93
